// reported CC50 at 48 h per item
EXPERIMENT_SUMMARY: cell cytotoxicity assay (MTT)
Format: cell-based
CONDITION_CONTEXT: human, 50% cytotoxicity concentration, Huh7 (NS3-5B) cells
ENDPOINT: CC50 at 48 h

> print(dat)
                                    compound   result
 1  O=C(COC(=O)c1cccc(N2C(=O)C3C4c5ccccc5C(c5ccccc54)C3C2=O)c1)c1ccc(Br)cc1 (centres unmarked) [Compound 16]  > 50 µM
 2  Oc1ccc2cc(Br)ccc2c1/C=N/c1nc[nH]n1 [Compound 12]  > 50 µM
 3  C=CCc1cccc(/C=N/c2ccc(OC)cc2)c1O [Compound 11]  > 50 µM
 4  COc1ccc(/C=N/NC(=O)c2ccc(O)cc2O)cc1O [Compound 4]  > 50 µM
 5  Cc1ccc(O)c(/C=N/NC(=O)C2C(=O)NCC2c2ccccc2)c1 (centres unmarked) [Compound 3]  > 50 µM
 6  COc1cccc(/C=N/NC(=O)c2cc3ccccc3nc2C)c1O [Compound 5]  > 50 µM
 7     NC(=S)N/N=C/c1cccc(O)c1O [Compound 8]  1.12 µM
 8  COc1ccc(-c2cc(C(=O)Nc3ccc(S(=O)(=O)Nc4nccs4)cc3)c3ccccc3n2)c(OC)c1 [Compound 14]  > 50 µM
 9  O=C(N/N=C/c1ccc(O)cc1O)c1[nH]nc2c1CCCC2 [Compound 1]  0.46 µM
10  O=C(NC(C(=O)N/N=C/c1ccc(O)cc1O)c1n[nH]c(=O)c2ccccc12)c1ccccc1 (centres unmarked) [Compound 2]  > 50 µM
11  O=C(CSc1nnc(CNc2ccccc2)n1-c1ccc(Cl)cc1Cl)N/N=C/c1c2ccccc2cc2ccccc12 [Compound 6]  14.8 µM
12  O=C1c2ccccc2C(=O)N1/N=C/c1cccc(O)c1O [Compound 10]  > 50 µM
13  CCCCC(CC)C(=O)Nc1nnc(Cc2ccc(OC)cc2)s1 (centres unmarked) [Compound 15]  > 50 µM
14  CCC(C)c1ccc(-c2cc(C(=O)N/N=C/c3cccnc3)c3ccccc3n2)cc1 (centres unmarked) [Compound 7]  11.8 µM

---

EXPERIMENTAL_TARGET: HCV NS3/4A protease (Hepatitis C virus genotype 1b)
Construct: HCV NS3/4A protease diluent (10 ng, 10 μL); purchased AnaSpec 71126 (assay kit)
Sequence (O92972 1658-1711): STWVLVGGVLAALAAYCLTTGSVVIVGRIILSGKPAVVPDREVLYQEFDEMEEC
Sequence (O92972 1027-1657): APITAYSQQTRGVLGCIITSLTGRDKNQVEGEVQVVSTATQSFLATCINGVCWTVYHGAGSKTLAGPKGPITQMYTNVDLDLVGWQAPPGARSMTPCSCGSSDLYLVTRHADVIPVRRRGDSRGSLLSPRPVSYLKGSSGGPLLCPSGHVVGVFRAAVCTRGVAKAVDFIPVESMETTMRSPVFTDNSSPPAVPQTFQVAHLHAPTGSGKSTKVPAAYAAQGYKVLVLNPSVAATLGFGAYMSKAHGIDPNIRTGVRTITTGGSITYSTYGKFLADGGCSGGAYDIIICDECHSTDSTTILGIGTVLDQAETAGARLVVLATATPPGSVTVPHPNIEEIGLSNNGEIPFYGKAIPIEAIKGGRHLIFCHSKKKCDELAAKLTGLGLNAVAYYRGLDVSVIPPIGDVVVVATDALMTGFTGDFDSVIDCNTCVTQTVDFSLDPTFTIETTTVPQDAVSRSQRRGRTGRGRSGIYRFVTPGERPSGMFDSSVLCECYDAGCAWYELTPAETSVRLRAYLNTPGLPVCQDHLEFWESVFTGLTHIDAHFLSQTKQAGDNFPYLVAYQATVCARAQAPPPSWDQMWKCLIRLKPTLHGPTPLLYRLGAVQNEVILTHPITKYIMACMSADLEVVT
EXPERIMENT_SUMMARY: HCV NS3/4A protease assay (SensoLyte 490 kit)
CONDITION_CONTEXT: inhibition percentage at 50 μM in biochemical protease assay, mean of duplicate wells
# label = 1 if inhibition at 50 µM >= 50% else 0

> print(dat)
                                   molecule  group
1      COc1ccc(/C=N/NC(=O)c2ccc(O)cc2O)cc1O      1
2   O=C(N/N=C/c1ccc(O)cc1O)c1[nH]nc2c1CCCC2      1
3  O=C(CSc1nnc(CNc2ccccc2)n1-c1ccc(Cl)cc1Cl)N/N=C/c1c2ccccc2cc2ccccc12      0
4                NC(=S)N/N=C/c1ccc(O)c(O)c1      0
5  CCC(C)c1ccc(-c2cc(C(=O)N/N=C/c3cccnc3)c3ccccc3n2)cc1 (centres unmarked)      1

---

Test system: HCV replicon, Huh7 (NS3-5B) cells
EXPERIMENT_SUMMARY: cell-based HCV replicon assay (luciferase)
Set-up: species or system Hepatitis C virus genotype 1b
CONDITION_CONTEXT: Hepatitis C virus, genotype 1b, Huh-7, 48 h, Huh7 (NS3-5B) cells, 48 h incubation, luciferase readout
pIC50: −log10 of the molar value.
# label = y if pIC50 >= 5 else n

> print(dat)
                                    molecule  group
 1  O=C1c2ccccc2C(=O)N1/N=C/c1cccc(O)c1O [Compound 10]      y
 2  COc1ccc(/C=N/NC(=O)c2ccc(O)cc2O)cc1O [Compound 4]      n
 3     NC(=S)N/N=C/c1cccc(O)c1O [Compound 8]      y
 4  O=C(CSc1nnc(CNc2ccccc2)n1-c1ccc(Cl)cc1Cl)N/N=C/c1c2ccccc2cc2ccccc12 [Compound 6]      y
 5  C=CCc1cccc(/C=N/c2ccc(OC)cc2)c1O [Compound 11]      y
 6  COc1cccc(/C=N/NC(=O)c2cc3ccccc3nc2C)c1O [Compound 5]      y
 7  Oc1ccc2cc(Br)ccc2c1/C=N/c1nc[nH]n1 [Compound 12]      n
 8  CCCCC(CC)C(=O)Nc1nnc(Cc2ccc(OC)cc2)s1 (centres unmarked) [Compound 15]      n
 9  CCC(C)c1ccc(-c2cc(C(=O)N/N=C/c3cccnc3)c3ccccc3n2)cc1 (centres unmarked) [Compound 7]      y
10  COc1ccc(-c2cc(C(=O)Nc3ccc(S(=O)(=O)Nc4nccs4)cc3)c3ccccc3n2)c(OC)c1 [Compound 14]      n
11  O=C(N/N=C/c1ccc(O)cc1O)c1[nH]nc2c1CCCC2 [Compound 1]      y
